From: PubChem BioAssay (NCI)

System: SNB-75 CNS
Test: NCI tumour cell line growth inhibition, 48 h
experimentalEndpoint: TGI (µM)
Numbers only, in µM.

Some solved cases for reference:
molecule: Cc1ccc2c(=O)cc(-c3cc4ccccc4s3)[nH]c2n1
TGI / µM: 67.6
--
molecule: N#Cc1c(N)n(C2OC(CO)C(O)C2O)c2ncnc(N)c12 (stereo unspecified)
TGI / µM: 3.56

-- ask Bench note: what TGI did C[C@@]1([C@H](OC(=O)c2cccc3ccccc23)C(N)=O)CO1 show?
-- reply 37.1

---

Assign TGI to each entry below.
System: OVCAR-8 ovarian
Test: NCI tumour cell line growth inhibition, 48 h

compound: COc1ccc(C(=C(C#N)C#N)c2ccc(OC)cc2)cc1
TGI: > 100 µM
--
compound: NS(=O)(=O)c1ccc(C(=O)O)cc1
TGI: > 100 µM
--
compound: CC1(C)CCCC2(C)C3=C(CCC12)C(=O)OC3 (stereo not given)
TGI: > 100 µM
--
compound: C=C(C)[C@@H]1CC[C@]2(C(=O)N3CCN(C)CC3)CC[C@]3(C)[C@H](CC[C@@H]4[C@@]5(C)C/C(=C/c6ccncc6)[C@H](O)C(C)(C)[C@@H]5CC[C@]43C)[C@@H]12
TGI: 30.7 µM
--
compound: CC1(C)CC(=O)c2c([nH]c(=S)c(C#N)c2-c2ccc(Br)cc2)C1
TGI: > 100 µM
--
compound: O=[N+]([O-])c1ccc(CSc2c3ccccc3nc3ccccc23)cc1
TGI: 10.8 µM
--
compound: O=C1CC(c2ccccc2)NCCCCN2CC(CN1)C(C(O)c1ccccc1)C2=O (stereo not given)
TGI: > 100 µM
--
compound: [O-]c1ccccc1[C-]=Nc1ccccc1O.[O-]c1ccccc1[C-]=Nc1ccccc1O.[O]=[U]=[O]
TGI: 66.7 µM
--
compound: COc1cc(C(=O)O)cc2c1[nH]c1ccccc12
TGI: > 25 µM

# input for lookup
-- ask Bench note: what TGI did CC12CCC(=O)N1c1cc([N+](=O)[O-])ccc1N2 (stereo not given) show?
-- reply > 100 µM
